Reference source: patent US11214803B2

Tested on: Yap1 mRNA
Assay: Dose-dependent inhibition of human Yap1 in A-431 cells (Example 8, 10,000 cells per well, RTS4814)
Format: cell-based
Conditions: 500.0 nM; A-431 cells, 10,000 cells per well, free uptake, approximately 48 hours, RTS4814
Strand notation (5' to 3'): a small letter for the sugar, then the base; units joined by * are phosphorothioate-linked, units joined directly phosphodiester-linked; [ ] holds rarer units or linkages, { } end groups; capitals alone tell only the bases. k = constrained ethyl (cEt); [5mC] = 5-methylcytosine; d = 2'-deoxy (DNA)
Mark F for Yap1 mRNA, % UTC values under 7 % UTC, and T for everything at or above.

Answered examples (4):
>>> label_value("1076448 (k[5mC]*kT*kT*dA*dT*dA*dA*dT*dG*d[5mC]*dA*dA*dT*k[5mC]*k[5mC]*kT; antisense) [compound 1076448]")
"F"
>>> label_value("1076330 (antisense kG*kA*kA*dT*dT*dA*dT*dA*d[5mC]*dT*dG*dG*d[5mC]*kT*kA*k[5mC]) [compound 1076330]")
"T"
>>> label_value("1074413 (kA*k[5mC]*kT*dG*dT*dG*dA*dA*dA*dG*dA*dG*dG*kT*k[5mC]*kA; antisense) [compound 1074413]")
"F"
>>> label_value("1074411 (kT*kG*kT*dG*dA*dA*dA*dG*dA*dG*dG*dT*d[5mC]*kA*kG*k[5mC]; antisense) [compound 1074411]")
"T"

Does Yap1 mRNA, % UTC meet or surpass 7 % UTC for 1076549 (kG*kT*kG*d[5mC]*dA*dA*dA*dA*dT*dA*d[5mC]*d[5mC]*dT*kT*kT*kG; antisense) [compound 1076549] ?
T
